Experiment: Phase 1 Stage 1 clinical pharmacokinetics of SC ZA co-administered with rHuPH20
Assay type: in vivo, human
Conditions: human, serum, sc, serum; ZA 2 mg SC infusion + 24000 Units rHuPH20; 6 h post infusion; n=3; read-out: Mean Conc.
measureName: concentration at 6 h
Record the result as a number with its unit.

Entry O=P(O)(O)C(O)(Cn1ccnc1)P(=O)(O)O [ZA] has what concentration at 6 h?
7.69 ng/mL

----------
Experiment: Phase 1 Stage 1 clinical pharmacokinetics of SC ZA co-administered with rHuPH20
Format: in vivo, human
Details: human, serum, sc, ZA 0.5 mg SC + 24000 U rHuPH20; mean, n=3; read-out: Tmax
measureName: Tmax (h)
Answers are plain numbers, in h.

Entry O=P(O)(O)C(O)(Cn1ccnc1)P(=O)(O)O [ZA] has what Tmax?
1.14

----------
Assay: Pharmacokinetics of ZA in pig serum after IV or SC infusion with or without rHuPH20 (LC-MS-MS, non-compartmental analysis)
Format: in vivo
Conditions: female, Yorkshire, pig, serum, sc, […], pig 70; SC ZA […], 10 mL over 1.6 min, no rHuPH20; read-out: SC Bioavailability (0-1 h)
measureName: bioavailability
Record the result as a number with its unit.

Entry O=P(O)(O)C(O)(Cn1ccnc1)P(=O)(O)O [ZA] has what bioavailability?
66.5%

----------
Assay: Phase 1 Stage 1 clinical pharmacokinetics of SC ZA co-administered with rHuPH20
Format: in vivo, human
Conditions: human, serum, sc, AUC (0-12h), ZA 0.5 mg SC + 24000 U rHuPH20; individual subjects
measureName: AUC(0-t) (ng·h/mL)
Numbers only, in ng·h/mL.

Entry O=P(O)(O)C(O)(Cn1ccnc1)P(=O)(O)O has what AUC(0-t)?
60.8

----------
Assay: Pharmacokinetics of ZA in pig serum after IV or SC infusion with or without rHuPH20 (LC-MS-MS, non-compartmental analysis)
Assay type: in vivo
Conditions: female, Yorkshire, pig, serum, intravenous, […], animal ID 61, Study Group 1, IV 20 min infusion, ZA […], rHuPH20 0 U/mL, time 3 h; read-out: Zoledronic Acid Serum Concentration
measureName: concentration at 3 h (ng/mL)
One number for each entry, in ng/mL.

Entry O=P(O)(O)C(O)(Cn1ccnc1)P(=O)(O)O [ZA] has what concentration at 3 h?
6.1

----------
Test: Phase 1 Stage 1 clinical pharmacokinetics of SC ZA co-administered with rHuPH20
Format: in vivo, human
Conditions: human, serum, sc, ZA 0.5 mg SC + 24000 U rHuPH20; individual subjects
Description: A pharmacokinetic study of zoledronic acid (ZA) co-administered with rHuPH20 in human subjects was conducted. […] Serum concentration of ZA was determined using a qualified LC-MS-MS assay after derivatization with diazomethane (Zhu, L S et al. (2006) Rapid Commun. […] The assay range was from 2.0 to 400 ng/mL with a lower limit of quantitation (LLOQ) at 2.0 ng/mL. […] Summary statistics (mean, standard deviation, and median) were calculated using JMP or Microsoft Excel.
measureName: Cmax (ng/mL)
Numbers only, in ng/mL.

Entry O=P(O)(O)C(O)(Cn1ccnc1)P(=O)(O)O [ZA] has what Cmax?
15.3

----------
Experiment: Pharmacokinetics of ZA in pig serum after IV or SC infusion with or without rHuPH20 (LC-MS-MS, non-compartmental analysis)
Type: in vivo
Conditions: female, Yorkshire, pig, serum, iv, […], pig; ZA […] 20-min IV infusion; individual pigs 57, 61, 67; read-out: Vz
measureName: Vd (L/kg)
Numbers only, in L/kg.

Entry O=P(O)(O)C(O)(Cn1ccnc1)P(=O)(O)O [ZA] has what Vd?
0.371

Attribution: patent US20090311237A1
